# credit: PubChem BioAssay (NCATS)

Assay: P-glycoprotein substrates identified in KB-8-5-11 adenocarcinoma cell line, qHTS therapeutic library screen (AID 1346987); also: nearly all actives have a fitted effect of over 65% in size; also: potency is read from the fitted curve at half-maximal effect
Conditions: KB-8-5-11 (P-gp overexpressing) viability, CellTiter-Glo, 72 h; series mostly up to 44.5 µM
Inconclusive results are not listed. Active and inactive are the calls of the source. Calls follow the shape of the dose curve; as a rule, active = well fitted inhibition curve with a large enough effect; inconclusive = small, poorly fitted or top-dose-only effect; inactive = flat fitted curve, though single readings scatter.
READOUT KIND: Potency

>  <GIVEN SMILES>
C#C[C@]1(O)CC[C@@H]2[C@@H]3CCC4=CC(=O)CC[C@@H]4[C@H]3CC[C@@]21CC

>  <MEASURED VALUE>
inactive

$$$$
>  <GIVEN SMILES>
Cn1cc(C=CC(=O)c2cccc(F)c2)cc1C=CC(=O)NO

>  <MEASURED VALUE>
inactive

$$$$
>  <GIVEN SMILES>
Cn1cc(-c2ccc3ncc(Cc4ccc5ncccc5c4)n3n2)cn1

>  <MEASURED VALUE>
inactive

$$$$
>  <GIVEN SMILES>
COc1cc(OC)cc(-c2ccc3ncc4ccc(=O)n(-c5ccc(N6CCNCC6)c(C(F)(F)F)c5)c4c3c2)c1

>  <MEASURED VALUE>
7.43 µM (active)

$$$$
>  <GIVEN SMILES>
CC(=O)[C@]1(O)Cc2c(O)c3c(c(O)c2[C@@H](O[C@H]2C[C@H](N)[C@@H](O)[C@H](C)O2)C1)C(=O)c1ccccc1C3=O

>  <MEASURED VALUE>
0.833 µM (active)

$$$$

Dear colleague, I am looking for the recorded Potency of the following compound: "CCOC(=O)[C@H](CCc1ccccc1)N[C@@H](C)C(=O)N1[C@@H](C(=O)O)C[C@H]2CCC[C@@H]21"
10.5 µM (active)

Dear colleague, I am looking for the recorded Potency of the following compound: "Nc1nc(=O)n([C@H]2C[C@H](O)[C@@H](CO)O2)cc1F"
4.18 µM (active)

Dear colleague, I am looking for the recorded Potency of the following compound: "CCCCCCCCc1ccc(CCC(N)(CO)CO)cc1"
23.5 µM (active)

Dear colleague, I am looking for the recorded Potency of the following compound: "CN[C@H]1[C@@H](O)[C@@H]2O[C@@H]3O[C@H](C)CC(=O)[C@]3(O)O[C@@H]2[C@@H](NC)[C@H]1O"
inactive

---

Assay: Quantitative High-Throughput drug screen in 47 multiple myeloma cell lines against the NCATS MIPE library collection: SKMM1_PLB cell viability assay (AID 1919863); also: potency is read from the fitted curve at half-maximal effect; nearly all actives have a fitted effect of over 35% in size
Details: SKMM1 myeloma viability, CellTiter-Glo ATP, 48 h
Inconclusive results are not listed. Calls of active or inactive are those of the source. Calls follow the shape of the dose curve; as a rule, active = well fitted cell-killing curve with a large enough effect; inconclusive = small, poorly fitted or top-dose-only effect, or effect the other way; inactive = no such curve, though single readings can be large or run the other way.
Measured Potency accompanies every entry in the list below.

>  <GIVEN SMILES>
CC(C)NC[C@@H](C(=O)N1CCN(c2ncnc3c2[C@H](C)C[C@H]3O)CC1)c1ccc(Cl)cc1

>  <Potency>
10.5 µM (active)

$$$$

Dear colleague, I am looking for the recorded Potency of the following compound: "CCN(CC)CCCCNc1ncc2c(n1)N(C)C(=O)N(c1c(Cl)c(OC)cc(OC)c1Cl)C2"
14.8 µM (active)

Dear colleague, I am looking for the recorded Potency of the following compound: "COc1cccc2c1C(=O)c1c(O)c3c(c(O)c1C2=O)C[C@@](O)(C(=O)CO)C[C@H]3O[C@H]1C[C@H](N)[C@H](O)[C@H](C)O1"
0.209 µM (active)

Dear colleague, I am looking for the recorded Potency of the following compound: "N#CNC(=NCCCCCCOc1ccc(Cl)cc1)Nc1ccncc1"
0.0166 µM (active)
